- tested-system: human COX-2 (Homo sapiens)
- Sequence (P35354 18-604): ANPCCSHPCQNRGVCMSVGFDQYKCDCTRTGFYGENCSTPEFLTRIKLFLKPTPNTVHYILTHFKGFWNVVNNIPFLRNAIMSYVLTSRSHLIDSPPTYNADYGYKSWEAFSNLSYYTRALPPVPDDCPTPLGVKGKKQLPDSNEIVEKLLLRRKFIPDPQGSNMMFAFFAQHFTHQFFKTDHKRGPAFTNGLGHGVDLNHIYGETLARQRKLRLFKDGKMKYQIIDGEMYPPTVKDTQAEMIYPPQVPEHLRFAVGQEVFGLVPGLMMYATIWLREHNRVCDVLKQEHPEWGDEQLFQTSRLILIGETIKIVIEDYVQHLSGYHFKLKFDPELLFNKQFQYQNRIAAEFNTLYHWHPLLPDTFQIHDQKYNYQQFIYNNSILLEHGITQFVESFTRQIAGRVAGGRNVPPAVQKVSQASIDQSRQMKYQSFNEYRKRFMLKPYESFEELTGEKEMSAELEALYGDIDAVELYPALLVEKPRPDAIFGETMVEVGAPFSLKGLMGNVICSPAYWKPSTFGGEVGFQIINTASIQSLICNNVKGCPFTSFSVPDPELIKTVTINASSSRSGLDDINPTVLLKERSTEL
- protocol-description: Inhibition of PGE2 release in COS cells stably transfected with human COX-2
- test-settings: 30 μM arachidonic acid
pIC50: −log10 of the molar value.
quantity-name: pIC50

INSERT INTO results (compound, measured) VALUES
  ('CN(c1nc(-c2ccc(S(C)(=O)=O)cc2)cc(C(F)(F)F)n1)C1CCOCC1', 7.77),
  ('CS(=O)(=O)c1ccc(-c2cc(C(F)(F)F)nc(NC3CCOCC3)n2)cc1', 7.74),
  ('CCCCN(c1nc(-c2ccc(S(C)(=O)=O)cc2)cc(C(F)(F)F)n1)C1CCOCC1', 6.84),
  ('CCN(c1nc(-c2ccc(S(C)(=O)=O)cc2)cc(C(F)(F)F)n1)C1CCOCC1', 7.60);

----------
- tested-system: human COX-1 (Homo sapiens, UniProt P23219)
- Sequence (P23219 24-599): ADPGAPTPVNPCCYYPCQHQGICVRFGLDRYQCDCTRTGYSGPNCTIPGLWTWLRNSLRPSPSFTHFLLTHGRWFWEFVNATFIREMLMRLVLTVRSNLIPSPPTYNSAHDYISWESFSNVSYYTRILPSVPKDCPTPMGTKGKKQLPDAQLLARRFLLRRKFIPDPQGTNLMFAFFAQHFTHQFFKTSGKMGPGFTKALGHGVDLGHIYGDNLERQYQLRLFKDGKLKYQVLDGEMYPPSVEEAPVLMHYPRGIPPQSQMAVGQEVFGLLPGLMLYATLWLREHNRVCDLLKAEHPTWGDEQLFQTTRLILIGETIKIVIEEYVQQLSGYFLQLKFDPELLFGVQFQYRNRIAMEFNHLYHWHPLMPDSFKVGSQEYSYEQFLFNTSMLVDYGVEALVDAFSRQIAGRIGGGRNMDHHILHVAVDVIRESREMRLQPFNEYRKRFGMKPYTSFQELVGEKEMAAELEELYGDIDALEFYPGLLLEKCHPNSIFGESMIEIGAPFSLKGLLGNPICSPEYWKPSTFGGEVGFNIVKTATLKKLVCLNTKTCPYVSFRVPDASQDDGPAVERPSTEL
- protocol-description: Inhibition of PGE2 release in COS cells stably transfected with human COX-1
- test-settings: 30 μM arachidonic acid
- Procedure: Inhibitory activity against human COX-1 and COX-2 was assessed in COS cells which had been stably transfected with cDNA for human COX-1 and human COX-2. […] Following the overnight incubation, the incubation medium was completely removed from the 24-well cell culture plates and replaced with 250 μl fresh DMEM (37° C.). […] The selectivity ratio of inhibition of COX-1 versus COX-2 was calculated by comparing respective IC50 values.
pIC50: −log10 of the molar value.
The reader will find reported pIC50 values listed item by item below.
quantity-name: pIC50

INSERT INTO measurements (compound, result_operator, measured) VALUES
  ('CCCCN(c1nc(-c2ccc(S(C)(=O)=O)cc2)cc(C(F)(F)F)n1)C1CCOCC1', '=', 4.14),
  ('CS(=O)(=O)c1ccc(-c2cc(C(F)(F)F)nc(NC3CCOCC3)n2)cc1', '<', 4.04),
  ('CN(c1nc(-c2ccc(S(C)(=O)=O)cc2)cc(C(F)(F)F)n1)C1CCOCC1', '=', 4.22),
  ('CCN(c1nc(-c2ccc(S(C)(=O)=O)cc2)cc(C(F)(F)F)n1)C1CCOCC1', '=', 4.16);
